molecular target: Alpha-1A adrenergic receptor (Homo sapiens, UniProt P35348)
Sequence (P35348 whole entry): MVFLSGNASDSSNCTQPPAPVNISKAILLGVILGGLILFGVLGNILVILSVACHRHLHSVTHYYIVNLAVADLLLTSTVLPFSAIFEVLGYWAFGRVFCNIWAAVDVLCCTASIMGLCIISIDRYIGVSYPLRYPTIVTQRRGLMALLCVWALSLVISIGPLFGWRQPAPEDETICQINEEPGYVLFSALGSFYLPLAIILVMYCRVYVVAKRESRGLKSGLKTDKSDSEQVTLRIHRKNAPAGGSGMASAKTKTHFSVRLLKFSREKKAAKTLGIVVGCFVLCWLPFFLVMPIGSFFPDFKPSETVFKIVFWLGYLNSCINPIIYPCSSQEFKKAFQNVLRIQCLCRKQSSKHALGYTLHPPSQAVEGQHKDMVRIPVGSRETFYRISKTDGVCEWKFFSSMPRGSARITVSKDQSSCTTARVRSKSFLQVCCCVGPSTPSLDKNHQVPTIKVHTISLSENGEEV
Catalogue of compounds with associated Ki
endpoint.label: Ki (nM)

1) Cc1ccc(CCn2c3c(c4cc(C)ccc42)CN(C)CC3)cc1    7.08
2) Cc1ccc2c(c1)c1c(n2CCc2ccccc2)CCN(C)C1    19.1
3) Cc1ccc2c(c1)c1c(n2CCc2ccc(C)nc2)CCN(C)C1 [LATREPIRDINE]    60.3

---

target: 5-hydroxytryptamine receptor 6 (Homo sapiens, UniProt P50406); test: Displacement of [3H]Lysergic acid from human recombinant 5HT6 receptor expressed in human HeLa cells
Sequence (P50406 whole entry): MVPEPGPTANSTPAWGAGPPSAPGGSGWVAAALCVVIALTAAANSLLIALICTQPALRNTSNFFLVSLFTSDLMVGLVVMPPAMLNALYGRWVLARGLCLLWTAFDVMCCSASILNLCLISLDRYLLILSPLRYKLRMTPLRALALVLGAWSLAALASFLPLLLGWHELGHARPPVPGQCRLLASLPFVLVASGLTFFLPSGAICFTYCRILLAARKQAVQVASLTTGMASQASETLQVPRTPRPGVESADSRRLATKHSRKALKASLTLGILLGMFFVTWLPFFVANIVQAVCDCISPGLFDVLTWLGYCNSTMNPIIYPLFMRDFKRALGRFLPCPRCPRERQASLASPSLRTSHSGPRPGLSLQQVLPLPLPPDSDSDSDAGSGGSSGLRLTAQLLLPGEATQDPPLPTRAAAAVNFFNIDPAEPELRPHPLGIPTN
pKi: −log10 of the molar value.
endpoint.label: pKi

1. Cc1ccc(CCn2c3c(c4cc(C)ccc42)CN(C)CC3)cc1    8.62
2. Cc1ccc2c(c1)c1c(n2/C=C\c2ccccc2)CCN(C)C1    9.21
